From: paper PMC8700221

molecular target: CYP2D (rat liver microsomes); construct: native enzymes in pooled liver microsomes of control male rats (n = 10); CYP2D1 and CYP2D2 named most abundant in liver; test: bufuralol […]'-hydroxylation in liver microsomes, HPLC with fluorometric detection, Dixon plot; details: competitive; bufuralol 5, 10 and 20 µM; iloperidone 1-250 µM; 0.5 mg protein/mL; NADPH-generating system; CYP2D isoenzymes mixed
pKi: −log10 of the molar value.

| Compound | pKi |
| --- | --- |
| COc1cc(C(C)=O)ccc1OCCCN1CCC(c2noc3cc(F)ccc23)CC1 [iloperidone] | 4.94 |
